Measured values drawn from ChEMBL document CHEMBL4689842 for this set.

Can you tell me Population Normal (%) for the items I'm about to list?
Test system: U2OS
assayRemarks: Multiplex assay against U2OS
Assay type: toxicity, cell-based
experimentalConditions: human, 48 h, 10 µM, compound concentration 10 uM, replicate 2

Give Population Normal (%) for the following compound: `Cl.O=C(O)c1cc(-c2ccc(C3CCNCC3)cc2)c2ccc(-c3ccc(C(F)(F)F)cc3)cc2c1`
89%

Give Population Normal (%) for the following compound: `COC(=O)C1=C(C)NC(C)=C(C(=O)OCCCN2CCC(c3ccccc3)(c3ccccc3)CC2)[C@H]1c1cccc([N+](=O)[O-])c1`
81%

Give Population Normal (%) for the following compound: `CNC(=O)Nc1ccc(-c2nc(N3CC4CCC(C3)O4)c3cnn(C4CCC5(CC4)OCCO5)c3n2)cc1`
83%

Give Population Normal (%) for the following compound: Cc1cccc(CN2CCN(C(c3ccccc3)c3ccc(Cl)cc3)CC2)c1.Cl.Cl (centres undefined)
94%
